System: MDA-MB-435
test: NCI tumour cell line growth inhibition, 48 h
assay.readout: TGI

Sample records with TGI:
Notebook: pull reported TGI for MDA-MB-435, entry C=CC[C@@]1(OC(C)=O)C(=O)C(=O)OC1C1COC(C)(C)O1 (stereo partly drawn) 30.9 µM

Item: O=C1CCCC/C1=C(\Br)I 29.4 µM

Item: C#CCCCCC#Cc1ccccc1C(=O)C=[N+]=[N-] > 100 µM

Continuing:
Notebook: pull reported TGI for MDA-MB-435, entry C/C(=N\[N+](C)(C)C)c1ccc(C)c(C)c1 > 100 µM

Item: O=C1CCc2c(Oc3ccc4c(c3)[C@H]3[C@@H](O4)[C@@H]3c3nc4ccc(C(F)(F)F)cc4[nH]3)ccnc2N1 > 100 µM

Item: COc1ccc(NC(=S)Nc2ccccc2)cc1 > 100 µM

Item: CC1(C)CC(=O)c2c(nc3c4c([nH]c(-c5ccc([N+](=O)[O-])cc5)c24)CC(C)(C)C3)C1 > 100 µM

Item: NC(=S)C1=C(N)Oc2c(c(=O)oc3ccccc23)C1c1ccc(Br)cc1 (stereo not drawn) > 100 µM

Item: COC(=O)[C@@]1(C)CCC[C@]2(C)[C@H]3Cc4occc4[C@H](C)[C@@H]3CC[C@@]12O 38.7 µM

Origin of the recorded values: PubChem BioAssay (NCI)
